- Test: In vivo pharmacokinetic study, intravenous emulsion
- Set-up: species or system female Sprague Dawley rats
- Experimental conditions: female, Sprague Dawley, rat, plasma, iv, 5 mg/kg
Metric name: Vd (L/kg)

O=C1CCc2ccc(OCCCCN3CCN(c4cccc(Cl)c4Cl)CC3)cc2N1 = 8.16

---

- Test: In vivo pharmacokinetic study, intravenous emulsion
- Parameters: species or system female Sprague Dawley rats
- Experimental conditions: female, Sprague Dawley, rat, plasma, iv, 5 mg aripiprazole/kg (molar equivalent)
Metric name: clearance

O=C1CCc2ccc(OCCCCN3CCN(c4cccc(Cl)c4Cl)CC3)cc2N1 = 22.8 mL/min/kg

---

- Test: In vivo pharmacokinetic study, intravenous emulsion
- Set-up: species or system female Sprague Dawley rats
- Experimental conditions: female, Sprague Dawley, rat, plasma, iv, 5 mg/kg
Metric name: half-life

O=C1CCc2ccc(OCCCCN3CCN(c4cccc(Cl)c4Cl)CC3)cc2N1 = ~4.2 h
